Target: T1, Flt-IgG (a chimeric Flt-human Fc molecule) (UniProt P17948 27-758, limits assumed)
T1 construct: Only described as a chimeric Flt-human Fc molecule; not shown: human Fc
T1 sequence (P17948 27-758 limits assumed, change not shown): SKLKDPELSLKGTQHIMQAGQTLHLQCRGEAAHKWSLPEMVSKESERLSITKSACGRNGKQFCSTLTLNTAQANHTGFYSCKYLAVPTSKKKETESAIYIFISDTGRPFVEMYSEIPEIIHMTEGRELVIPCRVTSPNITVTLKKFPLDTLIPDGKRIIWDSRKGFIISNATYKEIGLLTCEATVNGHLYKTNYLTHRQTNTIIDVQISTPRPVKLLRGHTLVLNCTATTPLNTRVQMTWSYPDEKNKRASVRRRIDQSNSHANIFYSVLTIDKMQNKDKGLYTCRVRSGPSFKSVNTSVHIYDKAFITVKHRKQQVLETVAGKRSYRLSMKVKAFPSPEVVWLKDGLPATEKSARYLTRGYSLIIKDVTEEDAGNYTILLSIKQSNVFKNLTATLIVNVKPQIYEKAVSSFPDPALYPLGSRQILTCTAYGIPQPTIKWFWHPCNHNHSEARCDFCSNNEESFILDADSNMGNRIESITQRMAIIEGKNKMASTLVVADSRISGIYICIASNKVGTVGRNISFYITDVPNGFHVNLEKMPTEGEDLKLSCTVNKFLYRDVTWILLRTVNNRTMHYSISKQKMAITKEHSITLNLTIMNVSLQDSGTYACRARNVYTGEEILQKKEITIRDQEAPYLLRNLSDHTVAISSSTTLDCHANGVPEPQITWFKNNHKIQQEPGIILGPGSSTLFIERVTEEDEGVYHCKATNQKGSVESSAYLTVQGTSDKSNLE
Experiment: competition ELISA vs biotinylated native VEGF, Flt-IgG captured by anti-Fc
assayMetric: Relative Binding Affinity (ratio to native VEGF (8-109)) (fold)
One number for each entry, in fold.

The examples below pair each entry with its known result.
binder	unitOfMeasurement	endpointValue
LK-VRB-6s (ligand, human, UniProt P15692-4 27-135, looked up) APMAEGGGQNHHEVVKFMDVYQRSYCHPIETLVDIFQEYPDEIEYIFKPSCVPLMRCGGCCNSEATECVPTEESNITMQIMRIKPHQGQHIGEMSFLQHNKCECRPKKD	fold	10
LK-VRB-5s (ligand, human, UniProt P15692-4 27-135, looked up) APMAEGGGQNHHEVVKFMDVYQRSYCHPIETLVDIFQEYPDEIEYIFKPSCVPLMRCGGCCNSEGRECVPTEESNITMQIMRIKPHQGQHIGEMSFLQHNKCECRPKKD	fold	550
LK-VRB-9s (ligand, human, UniProt P15692-4 27-135, looked up) APMAEGGGQNHHEVVKFMDVYRRSYCHPIETLVDIFQEYPDEIEYIFKPSCVPLMRCGGCCNSEMRECVPTEESNITMQIMRIKPHQGQHIGEMSFLQHNKCECRPKKD	fold	300

// batch mode: one Relative Binding Affinity (ratio to native VEGF (8-109)) value per listed entry
1. LK-VRB-3s (ligand, human, UniProt P15692-4 27-135, looked up) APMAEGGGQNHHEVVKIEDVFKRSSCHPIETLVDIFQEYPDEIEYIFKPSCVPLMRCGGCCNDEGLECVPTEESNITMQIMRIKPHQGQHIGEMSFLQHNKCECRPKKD
2. LK-VRB-1s* (ligand, human, UniProt P15692-4 27-135, looked up) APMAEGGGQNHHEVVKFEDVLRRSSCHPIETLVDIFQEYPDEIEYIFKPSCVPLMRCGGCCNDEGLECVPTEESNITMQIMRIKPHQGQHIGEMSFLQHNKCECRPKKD

400
6000

Tell me its Relative Binding Affinity (ratio to native VEGF (8-109)) given LK-VRB-4s (ligand, human, UniProt P15692-4 27-135, looked up) APMAEGGGQNHHEVVKIEDVFERSICHPIETLVDIFQEYPDEIEYIFKPSCVPLMRCGGCCNDEGLECVPTEESNITMQIMRIKPHQGQHIGEMSFLQHNKCECRPKKD as the entry.
200
